Measured values drawn from ChEMBL document CHEMBL1287678 for this set.

# pKi per record follows
Molecular target: 5-hydroxytryptamine receptor 1D (Homo sapiens)
Sequence (P28221 whole entry): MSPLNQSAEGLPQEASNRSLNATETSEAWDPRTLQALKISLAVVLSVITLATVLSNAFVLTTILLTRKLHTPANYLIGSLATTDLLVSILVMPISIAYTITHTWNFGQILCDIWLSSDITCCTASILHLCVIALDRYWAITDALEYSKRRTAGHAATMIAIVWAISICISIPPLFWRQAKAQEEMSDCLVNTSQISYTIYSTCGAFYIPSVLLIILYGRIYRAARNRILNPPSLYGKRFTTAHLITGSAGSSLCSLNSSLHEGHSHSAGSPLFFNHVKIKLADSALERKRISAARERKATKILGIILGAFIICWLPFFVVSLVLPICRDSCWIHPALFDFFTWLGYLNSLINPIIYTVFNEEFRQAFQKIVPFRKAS
Assay: Antagonist activity at human 5-HT1D receptor expressed in CHO cells assessed as inhibition of GTPgammaS binding by scintillation proximity assay
Quick note: pKi values are minus log10 of concentrations in mol/L.

Previously resolved entries follow.
| Molecule smiles | pKi |
| --- | --- |
| Cc1ccc2c(N3CCN(CCc4c(F)ccc5c4ccc(=O)n5C)CC3)cccc2n1 | 9.40 |
| Cc1ccc2c(N3CCN(CCc4cccc5c4CCC(=O)N5C)CC3)cccc2n1 | 10.10 |

[in] // pKi lookup, key: Cc1ccc2c(C3CCN(CCc4c(C)ccc5c4ccc(=O)n5C)CC3)cccc2n1
[out] 7.40

[in] Input Cc1ccc2c(N3CCN(CCc4c(C)ccc5c4CCC(=O)N5C)CC3)cccc2n1
[out] 9.00

[in] Input Cc1ccc2c(N3CCN(CCc4c(C)ccc5c4ccc(=O)n5C)[C@@H](C)C3)cccc2n1
[out] 7.70
